Target: human vasopressin V1b receptor (Homo sapiens)
Sequence (P47901 1-424): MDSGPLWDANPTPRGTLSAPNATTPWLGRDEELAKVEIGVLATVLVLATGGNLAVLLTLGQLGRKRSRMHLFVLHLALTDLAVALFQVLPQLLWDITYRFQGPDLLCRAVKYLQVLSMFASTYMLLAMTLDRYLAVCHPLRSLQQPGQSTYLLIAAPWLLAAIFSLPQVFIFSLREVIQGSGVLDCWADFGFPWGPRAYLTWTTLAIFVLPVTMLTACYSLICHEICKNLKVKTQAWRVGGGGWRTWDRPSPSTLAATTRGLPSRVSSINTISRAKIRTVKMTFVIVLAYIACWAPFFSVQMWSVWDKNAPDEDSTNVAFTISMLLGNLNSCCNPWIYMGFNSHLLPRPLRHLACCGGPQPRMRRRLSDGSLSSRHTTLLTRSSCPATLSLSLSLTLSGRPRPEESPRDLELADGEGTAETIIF
pKi: −log10 of the molar value.
readoutName: pKi

Reference set (10 entries):
[[record]]
molecule = "COc1ccc(S(=O)(=O)n2c(=O)n(C(C(=O)N3CCC(N4CCN(C)CC4)CC3)c3ccccc3)c3cc(Cl)ccc32)cc1 (stereo not shown) [Example 64]"
experimentaltarget = "human vasopressin V1b receptor (Homo sapiens)"
valuereported = "6.30 to 7.00"

[[record]]
molecule = "COc1ccc(S(=O)(=O)n2c(=O)n(C(C(=O)N3CC[C@@H](N4CCNCC4)C3)c3ccccc3)c3cc(Cl)ccc32)cc1 (stereo partly shown) [Example 145]"
experimentaltarget = "human vasopressin V1b receptor (Homo sapiens)"
valuereported = "> 7.00"

[[record]]
molecule = "COc1ccc(S(=O)(=O)n2c(=O)n(C(C(=O)N3CCN(C4CCN(C)CC4)CC3)c3ccccc3OC)c3cc(Cl)ccc32)cc1 (stereo not shown) [Example 9]"
experimentaltarget = "human vasopressin V1b receptor (Homo sapiens)"
valuereported = "5.00 to 6.30"

[[record]]
molecule = "COc1ccc(S(=O)(=O)n2c(=O)n(C(C(=O)N3CC[C@H](Nc4ccncc4)C3)c3ccccc3)c3cc(C#N)ccc32)cc1 (stereo partly shown) [Example 253, trifluoroacetic acid]"
experimentaltarget = "human vasopressin V1b receptor (Homo sapiens)"
valuereported = "> 7.00"

[[record]]
molecule = "COc1ccc(S(=O)(=O)n2c(=O)n(C(C(=O)N3CCCC(N4CCN(Cc5ccccc5)CC4)C3)c3ccccc3)c3cc(Cl)ccc32)cc1 (stereo not shown) [Example 139]"
experimentaltarget = "human vasopressin V1b receptor (Homo sapiens)"
valuereported = "> 7.00"

[[record]]
molecule = "CCCN1CCN([C@H]2CCN(C(=O)C(c3ccccc3)n3c(=O)n(S(=O)(=O)c4ccc(OC)cc4OC)c4ccc(C#N)cc43)C2)CC1 (stereo partly shown) [Example 199]"
experimentaltarget = "human vasopressin V1b receptor (Homo sapiens)"
valuereported = "> 7.00"

[[record]]
molecule = "COc1ccc(S(=O)(=O)n2c(=O)n(C(C(=O)NCCN3CCNCC3)c3ccccc3)c3cc(Cl)ccc32)cc1 (stereo not shown) [Example 131]"
experimentaltarget = "human vasopressin V1b receptor (Homo sapiens)"
valuereported = "6.30 to 7.00"

[[record]]
molecule = "COc1ccc(S(=O)(=O)n2c(=O)n(C(C(=O)N3CCC[C@H](NC4CCN(C)CC4)C3)c3ccccc3)c3cc(C#N)ccc32)cc1 (stereo partly shown) [Example 246]"
experimentaltarget = "human vasopressin V1b receptor (Homo sapiens)"
valuereported = "6.30 to 7.00"

[[record]]
molecule = "COc1ccc(S(=O)(=O)n2c(=O)n(C(C(=O)N3CCCC(N4CCNCC4)C3)c3ccccc3)c3cc(Cl)ccc32)cc1 (stereo not shown) [Example 147]"
experimentaltarget = "human vasopressin V1b receptor (Homo sapiens)"
valuereported = "> 7.00"

[[record]]
molecule = "CCCN1CCN(C2CCN(C(=O)C(c3ccccc3)n3c(=O)n(S(=O)(=O)c4ccc(OC)cc4)c4ccc(Cl)cc43)CC2)CC1 (stereo not shown) [Example 17]"
experimentaltarget = "human vasopressin V1b receptor (Homo sapiens)"
valuereported = "> 7.00"


Now consider a different molecule.
Query block: Requested read-out: pKi. Entry: COc1ccc(S(=O)(=O)n2c(=O)n(C(C(=O)N3CCC[C@@H](NC4CCN(C)CC4)C3)c3ccccc3)c3cc(C#N)ccc32)cc1 (stereo partly shown) [Example 248]
Result block: 6.30 to 7.00
